Hey, just so you know, these numbers are from patent US20240158391A1.

target: CDK7/CyclinH/Mat1 (Homo sapiens, UniProt P50613); assay: ADP Glo kinase assay, CDK7/CyclinH/Mat1; type: biochemical; settings: Km ATP, read-out: Enzymatic inhibition, Ki, CDK7 H
Sequence (P50613 whole entry, species assumed): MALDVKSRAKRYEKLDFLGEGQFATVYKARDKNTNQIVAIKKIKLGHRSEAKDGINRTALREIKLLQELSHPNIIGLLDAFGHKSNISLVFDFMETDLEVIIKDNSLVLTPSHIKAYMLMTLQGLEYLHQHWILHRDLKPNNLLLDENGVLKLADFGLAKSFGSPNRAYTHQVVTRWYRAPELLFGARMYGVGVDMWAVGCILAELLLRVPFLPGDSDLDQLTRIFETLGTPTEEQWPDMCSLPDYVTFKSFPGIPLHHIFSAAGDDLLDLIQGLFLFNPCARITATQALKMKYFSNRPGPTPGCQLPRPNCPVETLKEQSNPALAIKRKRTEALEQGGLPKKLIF
Sequence (P51946 whole entry partner, species assumed): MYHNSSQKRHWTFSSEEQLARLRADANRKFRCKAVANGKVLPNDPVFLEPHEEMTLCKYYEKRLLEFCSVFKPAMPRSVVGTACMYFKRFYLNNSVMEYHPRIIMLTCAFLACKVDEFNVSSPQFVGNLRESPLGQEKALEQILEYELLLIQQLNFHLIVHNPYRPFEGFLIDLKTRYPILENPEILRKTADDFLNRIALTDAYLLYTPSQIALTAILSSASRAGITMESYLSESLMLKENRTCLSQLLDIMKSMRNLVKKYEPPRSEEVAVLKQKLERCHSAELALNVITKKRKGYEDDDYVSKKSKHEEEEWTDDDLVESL
Sequence (P51948 whole entry partner, species assumed): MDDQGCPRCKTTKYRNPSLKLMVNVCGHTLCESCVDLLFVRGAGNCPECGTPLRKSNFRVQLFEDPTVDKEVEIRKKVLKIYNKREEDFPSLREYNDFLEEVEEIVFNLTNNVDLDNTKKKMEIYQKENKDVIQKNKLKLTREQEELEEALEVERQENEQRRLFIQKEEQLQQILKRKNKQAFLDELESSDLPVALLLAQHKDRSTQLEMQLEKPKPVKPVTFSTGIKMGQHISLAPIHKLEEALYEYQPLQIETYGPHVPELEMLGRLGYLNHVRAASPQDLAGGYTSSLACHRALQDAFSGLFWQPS
pKi: −log10 of the molar value.
endpoint: pKi

Cc1cnc(Nc2ccc(N3CCOCC3)nc2)nc1-c1cnc2ccccn12 :: 5.76

1: CS(=O)(=O)N1CCN(c2ccc(Nc3nccc(-c4cnc5ccc(-c6cccnc6)cn45)n3)cn2)CC1
2: CCN1CCN(Cc2ccc(Nc3nccc(-c4cnc5ccc(-c6ccccc6)cn45)n3)cn2)CC1
Rank 1 against 2 by their pKi values and give the higher one. Your answer should be the label attached to the chosen record.
2
(2: 6.65, 1: 5.77)

----------
molecular target: CDK9/CyclinT1 (Homo sapiens); experiment: ADP Glo kinase assay, CDK9/CyclinT1; format: biochemical; settings: CDK9/CyclinT1; Km ATP; read-out: Enzymatic inhibition, Ki, CDK9 T1
Sequence (P50750 whole entry, species assumed): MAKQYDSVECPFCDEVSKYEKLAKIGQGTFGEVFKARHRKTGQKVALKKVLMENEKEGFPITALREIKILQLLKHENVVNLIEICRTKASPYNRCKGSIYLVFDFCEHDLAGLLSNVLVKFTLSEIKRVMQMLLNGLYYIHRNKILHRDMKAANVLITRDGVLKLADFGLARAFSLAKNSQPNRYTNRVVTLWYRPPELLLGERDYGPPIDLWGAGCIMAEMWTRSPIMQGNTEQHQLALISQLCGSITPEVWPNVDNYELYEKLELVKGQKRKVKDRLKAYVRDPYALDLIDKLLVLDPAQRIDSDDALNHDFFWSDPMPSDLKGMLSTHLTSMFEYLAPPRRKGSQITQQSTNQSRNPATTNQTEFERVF
Sequence (O60563 whole entry partner, species assumed): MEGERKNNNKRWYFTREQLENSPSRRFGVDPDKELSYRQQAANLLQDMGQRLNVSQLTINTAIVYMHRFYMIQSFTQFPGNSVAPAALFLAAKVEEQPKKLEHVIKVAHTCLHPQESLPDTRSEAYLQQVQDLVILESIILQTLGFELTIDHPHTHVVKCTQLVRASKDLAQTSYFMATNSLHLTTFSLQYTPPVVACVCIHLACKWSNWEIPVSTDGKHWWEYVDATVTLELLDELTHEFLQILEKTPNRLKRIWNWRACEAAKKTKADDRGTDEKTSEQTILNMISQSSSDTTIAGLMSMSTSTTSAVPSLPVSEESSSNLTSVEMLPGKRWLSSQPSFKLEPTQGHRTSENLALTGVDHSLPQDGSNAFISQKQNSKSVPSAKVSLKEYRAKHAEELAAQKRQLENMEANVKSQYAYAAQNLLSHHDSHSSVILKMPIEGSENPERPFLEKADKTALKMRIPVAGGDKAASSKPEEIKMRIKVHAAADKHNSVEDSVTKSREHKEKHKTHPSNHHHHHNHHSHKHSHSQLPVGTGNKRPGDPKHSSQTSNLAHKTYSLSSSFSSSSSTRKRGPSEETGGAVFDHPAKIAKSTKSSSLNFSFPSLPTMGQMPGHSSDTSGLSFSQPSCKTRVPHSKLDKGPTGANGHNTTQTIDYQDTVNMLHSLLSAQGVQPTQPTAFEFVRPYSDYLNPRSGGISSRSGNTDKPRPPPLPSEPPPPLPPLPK
endpoint: Ki (nM)

Check out these entries, answers already filled in.
CN1CCN(c2ccc(Nc3nccc(-c4cnc5ccc(-c6cnc(N)nc6)cn45)n3)cn2)CC1 :: 20
CS(=O)(=O)N1CCN(c2ccc(Nc3nccc(-c4cnc5ccc(-c6ccncc6)cn45)n3)cn2)CC1 :: 21
CCCNc1ccc(Nc2nccc(-c3cnc4ccc(-c5ccccc5)cn34)n2)cn1 :: 368

1: CS(=O)(=O)N1CCN(c2ccc(Nc3nccc(-c4cnc5ccc(-c6ccc(F)nc6)cn45)n3)cn2)CC1
2: CN1CCN(c2ccc(Nc3nccc(-c4cnc5ccc(-c6cccnc6)cn45)n3)nc2)CC1 [Comparator compound C, reference compound]
3: CC(C)N1CCN(c2ccc(Nc3nccc(-c4cnc5ccc(-c6ccncc6)cn45)n3)cn2)CC1
Task field, ranking: reported Ki, descending order. Respond with the label ranking, as requested.
1, 2, 3

----------
biological target: CDK9/CyclinT1 (Homo sapiens); test: ADP Glo kinase assay, CDK9/CyclinT1; details: CDK9/CyclinT1; Km ATP; read-out: Enzymatic inhibition, Ki, CDK9 T1
endpoint: Ki (nM)

Check out these entries, answers already filled in.
CCCNc1ccc(Nc2nccc(-c3cnc4ccc(-c5cnn(C(F)F)c5)cn34)n2)cn1 [Compound 76] :: 629
Brc1ccc2ncc(-c3ccnc(Nc4ccc(NC5CCOCC5)nc4)n3)n2c1 [Compound 57] :: 103
CN(C)c1ccc(Nc2nccc(-c3cnc4ccc(C5=CCNCC5)cn34)n2)cn1 [Compound 69] :: 16
CCN1CCN(Cc2ccc(Nc3nccc(-c4cnc5ccc(Br)cn45)n3)cn2)CC1 [Compound 79] :: 57
CN1CCN(c2ccc(Nc3nccc(-c4cnc5ccc(Cl)cn45)n3)cn2)CC1 [Compound 22] :: 10
CC(=O)N1CCN(c2ccc(Nc3nccc(-c4cnc5ccc(-c6ccncc6)cn45)n3)cn2)CC1 [Compound 46] :: 310
CN1CCN(c2ccc(Nc3nccc(-c4cnc5ccc(C(F)(F)F)cn45)n3)cn2)CC1 [Compound 36] :: 34
CC(C)N1CCN(c2ccc(Nc3nccc(-c4cnc5ccc(-c6cncnc6)cn45)n3)cn2)CC1 [Compound 53] :: 92
Cc1nc2ccc(F)cn2c1-c1ccnc(Nc2ccc(N3CCN(C)CC3)nc2)n1 [Compound 2] :: 168
CC(=O)N1CCN(c2ccc(Nc3ncc(F)c(-c4cnc5ccccn45)n3)cn2)CC1 [Compound 10] :: 50

P: CN1CCN(c2ccc(Nc3nccc(-c4cnc5ccc(-c6cccnc6)cn45)n3)cn2)CC1 [Compound 7]
Q: CN1CCN(c2ccc(Nc3nccc(-c4cnc5ccc(F)cn45)n3)cn2)CC1 [Compound 12]
R: CN1CCN(Cc2ccc(Nc3nccc(-c4cnc5ccc(-c6ccccc6)cn45)n3)cn2)CC1 [Compound 78]
S: CC(C)N1CCN(c2ccc(Nc3nccc(-c4cnc5ccc(-c6ccccc6)cn45)n3)cn2)CC1 [Compound 39]
Task field, ranking: reported Ki, descending order. Respond with the label ranking, as requested.
R, Q, S, P
(R: 65 nM, Q: 29 nM, S: 9 nM, P: 0.4 nM)
